Biological target: T1, soluble human CD3 epsilon chain (human, UniProt P07766 23-126)
T1 construct: also called CD3ε
T1 sequence (P07766 23-126 limits assumed): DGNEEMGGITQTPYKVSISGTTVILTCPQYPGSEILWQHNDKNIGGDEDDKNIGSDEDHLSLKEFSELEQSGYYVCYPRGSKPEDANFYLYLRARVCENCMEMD
Test: SPR
Let's look at some binders and their measured Kd.

- binder: "TR01H082-E22Hh/none-Hi-Kn010G3/L0201-k0 (antibody, V domains shown, one-arm) VH: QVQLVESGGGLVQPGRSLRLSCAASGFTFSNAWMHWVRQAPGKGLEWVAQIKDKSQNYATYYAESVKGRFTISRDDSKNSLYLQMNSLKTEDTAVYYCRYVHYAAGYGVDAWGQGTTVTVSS VL: DIVMTQSPLSLPVTPGEPASISCRSSQPPVHSNRNTYLHWYQQKPGQAPRLLIYKVSNRFSGVPDRFSGSGSGTDFTLKISRVEAEDVGVYYCGQGTQVPYTFGQGTKLEIKR"
  output.unit: "nM"
  Kd: 44.9
- binder: "TR01H040-E22Hh/none-Hi-Kn010G3/TR01L009-k0 (antibody, V domains shown, one-arm) VH: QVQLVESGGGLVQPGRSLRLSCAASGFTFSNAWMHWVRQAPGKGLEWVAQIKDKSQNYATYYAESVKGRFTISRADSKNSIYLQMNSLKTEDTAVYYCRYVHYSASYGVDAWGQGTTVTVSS VL: DIVMTQSPLSLPVTPGEPASISCRSSQSLVHSNRNTYLHWYLQKPGQSPQLLIYKVSNRFRGVPDRFSGSGSGTDFTLKISRVEAEDVGVYYCGQGTQVPYTFGQGTKLEIK"
  output.unit: "nM"
  Kd: 35.6

Source: patent US20250066503A1
